Target: T1, human CD3 (human, UniProt P07766 23-207; P04234 22-171; P09693 23-182)
T1 construct: whole, on cells; also called hCD3; CD3 on Jurkat cells
T1 sequence (P07766 23-207, chain 1 of 3): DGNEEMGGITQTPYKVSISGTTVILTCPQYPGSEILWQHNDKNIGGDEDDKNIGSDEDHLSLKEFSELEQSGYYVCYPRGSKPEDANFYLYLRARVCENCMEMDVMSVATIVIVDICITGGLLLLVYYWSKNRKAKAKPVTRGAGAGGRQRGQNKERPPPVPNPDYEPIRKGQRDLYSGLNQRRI
T1 sequence (P04234 22-171, chain 2 of 3): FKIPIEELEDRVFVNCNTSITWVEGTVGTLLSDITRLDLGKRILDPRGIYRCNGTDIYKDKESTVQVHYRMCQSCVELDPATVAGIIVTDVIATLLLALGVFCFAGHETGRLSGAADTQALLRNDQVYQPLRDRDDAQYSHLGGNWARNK
T1 sequence (P09693 23-182, chain 3 of 3): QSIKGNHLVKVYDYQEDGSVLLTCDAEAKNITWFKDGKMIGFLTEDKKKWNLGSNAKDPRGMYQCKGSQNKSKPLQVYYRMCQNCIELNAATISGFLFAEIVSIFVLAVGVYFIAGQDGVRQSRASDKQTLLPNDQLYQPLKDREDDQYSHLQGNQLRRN
Assay: FACS on Jurkat cells
# key: entry, value: Top FACS signal
quantity kind: Top FACS signal

ch147E11E2 (antibody, V domains shown) VH: QVQLQQPGTELVKPGTSVKLSCKASGYTFTSYWMHWVKQRPGQGLEWIGNINPSNGATNYNEKFKSKATLTVDKSSSTAYMQLSSLTSEDSAVYYCARDRSSQYYFDYWGQGTTLTVSS VL: DIVMSQSPSSLAVSAGEKVTMSCKSSQSLLNSRSRKNYLAWYQQKPGQSPKLLIYWASTRESGVPDRFTGSGSGTDFTLTISSVQAEDLAVYYCTQSYTLRTFGGGTKLEIK : 2780
hu147E2-L3H2 (antibody, V domains shown, humanized 147E11E2; also called hu14E2-L3H2) VH: EVQLVQSGAEVKKPGSSVKVSCKASGYTFTSYWMHWVRQAPGQGLEWMGNINPSNGATNYNEKFKSRVTITADKSTSTAYMELSSLRSEDTAVYYCARDRSSQYYFDYWGQGTTVTVSS VL: DIQMTQSPSSLSASVGDRVTITCKSSQSLLNSRSRKNYLAWYQQKPGKAPKLLIYWASTRESGVPSRFSGSGSGTDFTLTISSLQPEDFATYYCTQSYTLRTFGGGTKVEIK : 2730
hu147E2-L3H4 (antibody, V domains shown, humanized 147E11E2; also called hu14E2-L3H4) VH: EVQLVQSGAEVKKPGSSVKVSCKASGYTFTSYWMHWVRQAPGQGLEWIGNINPSNGATNYNEKFKSRATLTVDKSTSTAYMELSSLRSEDTAVYYCARDRSSQYYFDYWGQGTTVTVSS VL: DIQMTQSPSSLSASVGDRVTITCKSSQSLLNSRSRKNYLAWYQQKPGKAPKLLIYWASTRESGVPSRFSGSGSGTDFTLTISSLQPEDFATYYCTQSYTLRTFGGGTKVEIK : 2680
hu147E2-L3H3 (antibody, V domains shown, humanized 147E11E2; also called hu14E2-L3H3) VH: EVQLVQSGAEVKKPGSSVKVSCKASGYTFTSYWMHWVRQAPGQGLEWMGNINPSNGATNYNEKFKSRVTLTVDKSTSTAYMELSSLRSEDTAVYYCARDRSSQYYFDYWGQGTTVTVSS VL: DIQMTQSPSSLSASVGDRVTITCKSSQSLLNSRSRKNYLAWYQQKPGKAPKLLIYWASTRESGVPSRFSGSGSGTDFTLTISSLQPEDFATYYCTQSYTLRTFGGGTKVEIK : 2680
